- target: T1, MBP-SNX17 L470G (UniProt Q15036 1-470, L470G)
- T1 sequence: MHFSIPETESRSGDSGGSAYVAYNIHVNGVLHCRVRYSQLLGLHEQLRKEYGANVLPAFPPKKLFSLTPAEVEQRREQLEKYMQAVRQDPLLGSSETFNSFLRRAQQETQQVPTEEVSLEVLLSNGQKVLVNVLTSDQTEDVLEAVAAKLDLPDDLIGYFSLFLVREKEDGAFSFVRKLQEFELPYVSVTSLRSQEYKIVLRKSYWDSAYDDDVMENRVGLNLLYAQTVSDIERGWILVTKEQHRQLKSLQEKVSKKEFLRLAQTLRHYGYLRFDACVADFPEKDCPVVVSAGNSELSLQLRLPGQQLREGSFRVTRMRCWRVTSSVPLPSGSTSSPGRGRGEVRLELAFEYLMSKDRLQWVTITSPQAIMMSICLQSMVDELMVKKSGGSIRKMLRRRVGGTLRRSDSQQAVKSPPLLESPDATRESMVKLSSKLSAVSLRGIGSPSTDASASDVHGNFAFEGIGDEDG
- assay.summary: FP
Where no end group is shown, it is not given here. The star is where a group is joined. 5FAM = O=C1OC2(c3ccc(O)cc3Oc3cc(O)ccc32)c2ccc(C(=O)*)cc21
quantity.name: pKd
Hey, just a heads up that pKd is the negative log base 10 of the concentration in molar.

Entry under test: 5FAM-MNVEIGNPTYKMYE [Peptide LRP1_(14mer)] . Its pKd was 5.55

Entry under test: 5FAM-KLITYDNPAYEGID [Peptide L2_(14mer)] . Its pKd was 5.96
